Experiment: Viability qHTS for spleen associated tyrosine kinase inhibitor (SYKi) naive MV4-11 cells (AID 1963823); note: nearly all actives have a fitted effect of over 40% in size
Settings: MV4-11 AML viability, CellTiter-Glo luminescence, 72 h; series mostly up to 45 µM
Results filed as inconclusive are left out. The source made the active and inactive calls. Calls come from the whole dose curve; as a rule, active = well fitted cell-killing curve with a large enough effect; inconclusive = small, poorly fitted or top-dose-only effect, or effect the other way; inactive = no such curve, though single readings can be large or run the other way.
The reply should be one of these categories: YES = active, NO = inactive

Q: Hi, do you know how Cn1c(=O)c2nc(/C=C/c3cccc(Cl)c3)n(C)c2n(C)c1=O came out in this test?
Result: NO

Q: Hi, do you know how C[C@@H]1CN(c2c(F)c(F)c3c(=O)c(C(=O)O)cn(C4CC4)c3c2F)C[C@H](C)N1 came out in this test?
Result: NO

Q: Hi, do you know how O=C(NCN1CCOCC1)c1cnccn1 came out in this test?
Result: NO

Q: Hi, do you know how C[C@H]1[C@@H](O)[C@H](O)C2[C@]3(C)C([C@@H](O)[C@H]4OC(=O)[C@@H]1[C@@]24C)[C@](C)(O)C=C[C@H]3O[C@@H]1O[C@H](CO)[C@@H](O)[C@H](O)[C@H]1O (some centres undefined) came out in this test?
Result: NO

Q: Hi, do you know how CC1(C)S[C@@H]2[C@H](NC(=O)[C@H](N)c3ccccc3)C(=O)N2[C@H]1C(=O)O came out in this test?
Result: NO

Q: Hi, do you know how Cn1c(=O)c(F)c(Nc2ccc(I)cc2F)c2c(=O)n(C[C@@H](O)CO)cnc21 came out in this test?
Result: YES

Q: Hi, do you know how CC1=C(C(=O)O)/C(=C\CO[C@@H]2O[C@H](CO)[C@@H](O)[C@H](O)[C@H]2O)C(OC(=O)/C=C\c2ccc(O)cc2)C1 (some centres undefined) came out in this test?
Result: NO

Q: Hi, do you know how O=C(O)c1ccc(OCCCOc2ccc(C(=O)O)cc2)cc1 came out in this test?
Result: NO

Q: Hi, do you know how COc1cc(/C=C/C(=O)O[C@H]2[C@H](OC(=O)/C=C/c3cc(OC)c(O)c(OC)c3)O[C@H](CO[C@@H]3O[C@H](CO)[C@@H](O)[C@H](O)[C@H]3O)[C@@H](O)[C@@H]2O)ccc1O came out in this test?
Result: NO

Q: Hi, do you know how Cc1c(C(C)C)c(=O)n(-c2ccccc2)n1C came out in this test?
Result: NO

Q: Hi, do you know how Cc1c(C(=O)NCc2cccnc2)nn(-c2ccc(Cl)cc2Cl)c1-c1ccc(Cl)cc1 came out in this test?
Result: NO

Q: Hi, do you know how CN1CCN(C(=O)c2ccc(Nc3nccc(-c4cccs4)n3)cc2Cl)CC1 came out in this test?
Result: YES

Q: Hi, do you know how Cc1ncc(CO)c(C=O)c1O came out in this test?
Result: NO

Q: Hi, do you know how O=c1c2ccccc2nc2n1CCC2O (centres undefined) came out in this test?
Result: NO

Q: Hi, do you know how Oc1cccc(Nc2ccnc3cc(-c4cccc(CN5CCOCC5)c4)sc23)c1 came out in this test?
Result: YES

Q: Hi, do you know how Cc1noc(C)c1-c1ccc(-c2cc(C(N)=O)c(NC(N)=O)s2)c(O[C@H]2CCNC2)c1 came out in this test?
Result: YES

Q: Hi, do you know how COC[C@@H](c1ccc(C(F)(F)F)cc1)N1CCN(C2(C)CCN(C(=O)c3c(C)ncnc3C)CC2)C[C@@H]1C came out in this test?
Result: NO

Q: Hi, do you know how Cc1nc2ccc(CN(C)c3ccc(C(=O)N[C@@H](CCC(=O)O)C(=O)O)s3)cc2c(=O)[nH]1 came out in this test?
Result: YES

Q: Hi, do you know how Cn1c(=O)n(-c2ccc(C(C)(C)C#N)cc2)c2c3cc(-c4cnc5ccccc5c4)ccc3ncc21 came out in this test?
Result: YES

Q: Hi, do you know how CC(C)c1cc(C(=O)N2CC[C@H](NC(=O)C3CC3)C2)n[nH]1 came out in this test?
Result: NO

Q: Hi, do you know how OC[C@H]1O[C@@H](OC(CCCCc2ccc(O)cc2)CCc2ccc(O)cc2)[C@H](O)[C@@H](O)[C@@H]1O (some centres undefined) came out in this test?
Result: NO

Q: Hi, do you know how Cc1scc2c1N(C(=O)CN1CCN(C)CC1)c1ccccc1NC2=O came out in this test?
Result: NO

Q: Hi, do you know how CCCCc1nc(Cl)c(CO)n1Cc1ccc(-c2ccccc2-c2nnn[nH]2)cc1 came out in this test?
Result: NO

Q: Hi, do you know how CC1CCCC[C@H]2C(=O)C=C[C@H](O)[C@@H]2CC(=O)O1 (some centres undefined) came out in this test?
Result: YES

Q: Hi, do you know how CC(=O)OCC(CCn1cnc2cnc(N)nc21)COC(C)=O came out in this test?
Result: NO

Q: Hi, do you know how C=C1C2(CCC(=O)OC2(C)C)CC(OC(=O)/C(C)=C/C)C2(C)C13OC14C(=O)OC(C)(C(=O)C12C(=O)OC4C)C3OC(C)=O (centres undefined) came out in this test?
Result: NO

Q: Hi, do you know how CC1(C)CC[C@]2(C(=O)O[C@@H]3O[C@H](CO)[C@@H](O)[C@H](O)[C@H]3O)CC[C@]3(C)C(=CCC4[C@@]5(C)C[C@@H](O)[C@H](O)[C@@](C)(CO)C5CC[C@]43C)C2C1 (some centres undefined) came out in this test?
Result: NO

Q: Hi, do you know how C=CC(=O)Nc1cccc(Oc2nc(Nc3ccc(N4CCN(C)CC4)cc3)ncc2Cl)c1 came out in this test?
Result: YES

Q: Hi, do you know how C=C1C(=O)O[C@@H]2[C@H]3O[C@]3(C)CC/C=C(\C)CC[C@@H]12 came out in this test?
Result: YES

###

Assay: Viability qHTS for spleen associated tyrosine kinase inhibitor (SYKi) drug resistant MV4-11 cells (AID 1963824); note: nearly all actives have a fitted effect of over 35% in size; note: potency is the fitted concentration of half-maximal effect
Settings: SYKi-resistant MV4-11 viability, CellTiter-Glo, 72 h; series mostly up to 45 µM
Results filed as inconclusive are left out. Calls of active or inactive are those of the source. Calls follow the shape of the dose curve; as a rule, active = well fitted cell-killing curve with a large enough effect; inconclusive = small, poorly fitted or top-dose-only effect, or effect the other way; inactive = no such curve, though single readings can be large or run the other way.
metric_name: Potency

COc1ccc(CCc2nc3cc(-c4c(C)noc4C)ccc3n2CC(C)N2CCOCC2)cc1Cl (centres undefined); 5.17 µM (active)
O=C(O)c1ccc(O)c2ncc(N3CCCN(CCc4cccc5ccccc45)CC3)cc12; 10.3 µM (active)
Cc1ccc(-c2nn(C(C)(C)CNC(=O)c3ccncc3)c3ncnc(N)c23)cc1; 6.61 µM (active)
CC(C)c1c(O)ccc2c1CC[C@H]1C(C)(C)CCC[C@]21C; 16.4 µM (active)
C[N+](C)(CCOc1ccccc1)Cc1cccs1; inactive

Q: Reported Potency, compound CC1(C)CC2C(O)C3=C(CC(C)(O)C2C1)C(=O)OC3O (centres undefined) : ____
Result: inactive

Q: Reported Potency, compound OC[C@H]1O[C@@H](OCCc2ccc(O)cc2)[C@H](O)[C@@H](O)[C@H]1O : ____
Result: inactive

Q: Reported Potency, compound CC1C(=O)CC2C3C(O)CC(C(=O)O)C12CC3(C)C (centres undefined) : ____
Result: 20.6 µM (active)

Q: Reported Potency, compound C[C@H]1[C@H](C)CC[C@]2(C(=O)O)CC[C@]3(C)C(=CC[C@@H]4[C@@]5(C)CC[C@H](O)C(C)(C)[C@@H]5CC[C@]43C)[C@H]12 : ____
Result: 20.9 µM (active)

Q: Reported Potency, compound COC(=O)c1c(CC=C(C)C)c(OC2OC(CO)C(O)C(O)C2O)c2ccccc2c1OC1OC(CO)C(O)C(O)C1O (centres undefined) : ____
Result: inactive

Q: Reported Potency, compound Cn1nnc2c(C(N)=O)ncn2c1=O : ____
Result: inactive

Q: Reported Potency, compound Cn1ccc2cc3c(cc21)CCN3C(=O)Nc1cccnc1 : ____
Result: inactive

Q: Reported Potency, compound C=C1CCC2C(C)(C(=O)O)CC(O)CC2(C)C1CC/C(C)=C/C(=O)O (centres undefined) : ____
Result: inactive

Q: Reported Potency, compound CCN(CC)CCc1nc(-c2ccccc2)no1 : ____
Result: inactive

###

Assay: Viability qHTS for spleen associated tyrosine kinase inhibitor (SYKi) naive MV4-11 cells (AID 1963823); note: nearly all actives have a fitted effect of over 40% in size
Details: MV4-11 AML viability, CellTiter-Glo luminescence, 72 h; series mostly up to 45 µM
Inconclusive results are not listed. Active and inactive are the calls of the source. The call rests on the fitted dose curve; in most records, active means well fitted cell-killing curve with a large enough effect; inconclusive means small, poorly fitted or top-dose-only effect, or effect the other way; inactive means no such curve, though single readings can be large or run the other way.
The reply should be one of these categories: active, inactive

Q: Hi, do you know how C[C@]12CCCN1CC1=NNC(=O)c3cc(F)cc4[nH]c2c1c34 came out in this test?
Result: active

Q: Hi, do you know how CCCOc1ccc(C(=O)OCCN(CC)CC)cc1N came out in this test?
Result: inactive

Q: Hi, do you know how CC(=O)NC1CC(=O)C23C(=O)NC(Cc4c[nH]c5ccccc45)C2C(C)=C(C)C(O)C3/C=C/CC(C)/C=C(/C)C(O)C1O (stereo not given) came out in this test?
Result: inactive

Q: Hi, do you know how CN(C)Cc1ccc(S(=O)(=O)n2ccc(/C=C/C(=O)NO)c2)cc1 came out in this test?
Result: active

Q: Hi, do you know how O=C(O[C@H]1[C@@H]2C=CO[C@@H](O[C@@H]3O[C@H](CO)[C@@H](O)[C@H](O)[C@H]3O)[C@@H]2[C@@]2(CO)O[C@@H]12)c1ccc(O)cc1 came out in this test?
Result: inactive

Q: Hi, do you know how CC1(C)C2CC[C@]3(C)C(C(=O)C=C4[C@H]5C[C@@](C)(C(=O)O)CC[C@]5(C)CC[C@]43C)[C@@]2(C)CC[C@@H]1O (stereo not given in full) came out in this test?
Result: inactive

Q: Hi, do you know how NC(=O)c1ncn(C2O[C@H](CO)[C@@H](O)[C@H]2O)c1N (stereo not given in full) came out in this test?
Result: inactive

Q: Hi, do you know how Cc1cc(C(C)(C)C)c(O)c(C)c1CC1=NCCN1 came out in this test?
Result: inactive

Q: Hi, do you know how O=C(Nc1cccnn1)N1CCN(c2nccc(-c3ccc(F)c(F)c3)n2)CC1 came out in this test?
Result: inactive

Q: Hi, do you know how CC(=O)Oc1cccc(C)c1 came out in this test?
Result: inactive

The reported numbers originate from PubChem BioAssay (NCATS).
